The measurements presented in this section are drawn from patent US20260055088A1.

assay: Solubility in FassIF and FessIF solutions; format: physicochemical; conditions: thermodynamic from solid, FassIF solution, 37° C., read-out: Solubility in FassIF solution

chem-smiles	solubility at 24 h [µM]
COc1c([C@H]2[C@H](C(=O)Nc3ccnc(C(=N)N)c3)O[C@@](C)(C(F)(F)F)[C@H]2C)ccc(F)c1F	308

====

Experiment: Pharmacokinetic evaluation in SD rats (i.g.)
Type: in vivo
Conditions: male, Sprague-Dawley (SD), rat, plasma, po, 50 mg/kg, read-out: Half-life T½ (converted)
Experimental: SD rats were used as test animals. After intragastric (i.g.) administration of the example compounds to SD rats, the plasma concentrations of the compounds at different time points were determined by the LC/MS/MS method. The pharmacokinetic behaviors of the compounds of the present disclosure in SD rats were studied, and their pharmacokinetic profiles were evaluated. […]

chem-smiles	readout-unit	half-life
COc1c([C@H]2[C@H](C(=O)Nc3ccnc(C4(N)CC4)c3)O[C@@](C)(C(F)(F)F)[C@H]2C)ccc(F)c1F	h	5.84
